Literature survey of pKi (system: Histamine H3 receptor (Homo sapiens)).
One number for each entry, as −log10 of the molar value.

Your task in this section: give pKi for each listed record.
1. CCCS(=O)(=O)c1ccc(-c2ccc(CCN3CCC[C@H]3C)cc2)cc1
2. c1cc(Cn2ccc(CN3CCCC3)c2)ccc1CN1CCCC1
3. CN(C)CCC(Sc1ccccc1)c1ccc(OCCCN2CCCCC2)cc1 (stereo not drawn)

1. 8.43
2. 7.62
3. 9.22

Record pKi for all entries; do not skip any.
1. CSc1ccc(C2CN(C)Cc3cc(OC4CCN(CCF)CC4)ccc32)cc1 (stereo not drawn)
2. CN(C)CCC(Oc1ccccc1)c1ccc(CCCCN2CCCCC2)cc1 (stereo not drawn)

8.30
8.22
